Kindly find below Ki information for 5-hydroxytryptamine receptor 1A (Homo sapiens) taken from the literature.
Biological target: 5-hydroxytryptamine receptor 1A (Homo sapiens)
Sequence (P08908 whole entry): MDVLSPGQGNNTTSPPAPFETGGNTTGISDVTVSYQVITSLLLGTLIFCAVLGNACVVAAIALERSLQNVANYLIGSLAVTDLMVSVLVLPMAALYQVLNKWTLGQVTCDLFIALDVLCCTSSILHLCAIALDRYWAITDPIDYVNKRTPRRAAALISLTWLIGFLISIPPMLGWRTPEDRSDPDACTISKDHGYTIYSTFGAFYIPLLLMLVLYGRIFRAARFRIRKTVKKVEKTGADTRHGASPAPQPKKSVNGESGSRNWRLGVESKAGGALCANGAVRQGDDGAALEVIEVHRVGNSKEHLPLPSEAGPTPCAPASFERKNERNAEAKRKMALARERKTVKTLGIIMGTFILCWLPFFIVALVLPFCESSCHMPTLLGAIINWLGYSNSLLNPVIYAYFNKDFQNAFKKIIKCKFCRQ
API: value field is a number in nM; no unit string.

Worked cases, answers included:
COc1ccccc1N1CCN(CCCCNC(=O)[C@@H]2CCCN2C(=O)C2CCCCC2)CC1 | 27
COc1cc2ncnc(N3CCC(CN4CCN(c5ccccc5)CC4)C3)c2cc1OC (stereo not drawn) | 32.4
COc1ccccc1N1CCN(CCCCCn2ncc(=O)n(C)c2=O)CC1 | 150
Fc1cccc(C2CCNCC2)c1OCc1ccccc1 | 606
CN1CCN(c2nccc3cc4c(cc23)N(C(=O)c2ccc(C(F)(F)F)nc2)CC4)CC1 | 3.16

Q) Which measured Ki value corresponds to c1cc(N2CCN([C@H]3CC[C@H](c4c[nH]c5ccccc54)CC3)CC2)c2cc[nH]c2c1 ?
A) 5.3

Q) Same again, this time with CC(C)c1ccccc1N1CCN(CCCCC(=O)N2Cc3ccccc3C[C@H]2C(N)=O)CC1
A) 34

Q) Same again, this time with COc1cccc(N2CCN(CCCOc3cc(C)cc4oc(=O)cc(C)c34)CC2)c1
A) 6

Q) Same again, this time with CCCN(CCC)[C@H]1CCc2c(cccc2-c2c(OC)cccc2OC)C1
A) 347

Q) Same again, this time with CC1(c2ccc(Cl)cc2)NC(=O)N(CC(O)CN2CCN(C(c3ccccc3)c3ccccc3)CC2)C1=O.Cl (racemic)
A) 99

Q) Same again, this time with CCCN1CCc2cccc3c2[C@H]1Cc1cccc(OC(=O)CCCCC2CCSS2)c1-3 (stereo partly drawn)
A) 66
